Tested on: C. trachomatis
Experiment notes: In vitro susceptibility testing of C. trachomatis in cell culture using HEp-2 cells (MIC/MBC)
Type: cell-based, Chlamydia trachomatis
Stated conditions: Chlamydia trachomatis, 10 strains; read-out: MBC 90%
Measurement type: MBC (µg/mL)
Supply the numeric figure in µg/mL, leaving out any unit text.

Worked examples, 4 molecules total:
CC[C@H]1OC(=O)[C@H](C)C(=O)[C@H](C)[C@@H](O[C@@H]2O[C@H](C)C[C@H](N(C)C)[C@H]2O)[C@](C)(OC)C[C@@H](C)C(=O)[C@H](C)[C@H]2N(CCCCn3cnc(-c4cccnc4)c3)C(=O)O[C@]12C [Telithromycin, telithromycin]
0.06
C[C@H]1c2cccc(O)c2C(=O)C2=C(O)[C@]3(O)C(=O)C(C(N)=O)=C(O)[C@@H](N(C)C)[C@@H]3[C@@H](O)[C@@H]21 [Doxycycline, doxycycline]
0.06
CC[C@H]1OC(=O)[C@H](C)[C@@H](O[C@H]2C[C@@](C)(OC)[C@@H](O)[C@H](C)O2)[C@H](C)[C@@H](O[C@@H]2O[C@H](C)C[C@H](N(C)C)[C@H]2O)[C@](C)(O)C[C@@H](C)CN(C)[C@H](C)[C@@H](O)[C@]1(C)O [Azithromycin, azithromycin]
0.12
CC(=O)O[C@H]1C[C@@]2(C)[C@@H](C[C@@H](O)[C@H]3[C@@]4(C)CC[C@@H](O)[C@@H](C)[C@@H]4CC[C@@]32C)/C1=C(\CCC=C(C)C)C(=O)O [Fusidic acid]
0.5

Continue with the next molecule.
// query Returns the measured MBC for the input molecule. Input: CC[C@H]1OC(=O)[C@H](C)[C@@H](O[C@H]2C[C@@](C)(OC)[C@@H](O)[C@H](C)O2)[C@H](C)[C@@H](O[C@@H]2O[C@H](C)C[C@H](N(C)C)[C@H]2O)[C@](C)(OC)C[C@@H](C)C(=O)[C@H](C)[C@@H](O)[C@]1(C)O [Clarithromycin, clarithromycin]
// result 0.06
